- experiment: Saturation mutagenesis of SEQ ID NO:109: dicamba decarboxylation activity of point mutants (CO2 released), fold of backbone (Tables 7, 8, Megatable 1)
- details: decarboxylation activity (CO2 released) of point mutant vs unmutated backbone protein; backbone SEQ ID NO: 109
quantity.kind: Fold Activity (fold)
# number only, unit fold dropped from output

{"columns": ["molecule", "Fold Activity [fold]"],
 "data": [
  ["62 (protein, Bacillus thuringiensis serovar pulsiensis) MAVGGKNFRDVTDQVWCPKKRIEDMDREGVDIQVLSPIPVTFSYWAKPEEAESMARIQNDFIAETVLAYPDRFVGLGTVPMQDGETAIREMERCITELNLHGIEIGTNVNGKNLDDPSFIEFFRMAEKWQVPIFIHPWETLGRDRMPHHNFMYTVGMPSETALAAATLIWSGIMEKFPRLKVCFAHGGGSFPYILPRLDQGWKVWPHLRLTTHPPSYYAKKFYFDSLNYDPINLKYMIERFGHEKIFMGSDYPFLLREVDPGKVIDETASLSEEQKAAMLGGNAAEFLNIDIKKRGVAYAESTNT", 1],
  ["49 (protein, listed as Streptomyces sp.) MAKIIALEEHFSDPAVAKAGAARARALSPGFAASYSPASGLPYSPSPEVLENLAEKRLADMDAGGITMQVLSGLGAQTVPADVAPALVAGSNDKAAAAVRAHPDRFAAFAALPTATPEAAVAELDRSVNELGFVGTLIMGRTEGEFLDAPRFEPILARAAALKVPVFLHPGVPPREITDSNYAAGLPTGIGTRLQTAAWGWHQETAVHFLHLVHSGVLDRYPDLQFILGHWGEMIPFYLDRVDEALPQRATGLDRSFHEYFRENVYLAPSGMWSQAQLRFCLETVPLERIVFAVDYPFIGNEGAVPFLEKAELPQADKRKIAHENAERLLGL", 2],
  ["157 (protein, Dicamba decarboxylase variant) MAQGKVALEEHFAIPETLQDSAGFVPGDYWKELQHRLLDIQDTRLKLMDAHGIETMILSLAAPAVQAIPDRRKAIEIARRANDFLAEECAKRPDRFLAFAALPLQDPAAATEELQRCVNDLGFVGALVNGFSVEGDGQTPLYYDLPQYRPFWGEVEKLDVPFYLHPRNPLPQDSRIYDGHPWLLGPTWAFAQETAVHALRLMASGLFDEHPRLNIILGHMGEGLPYMMYRIDHRIAWVHEPPRYPAKRRFMDYFNENFHITTSGNFRTQTLIDAILEIGADRILFSTDWPFENIDHAADWFNATSIAEADRLKIGRTNARRLFKLDGD", 1.4]
]}

For the molecule 61 (protein, listed as Gordonia amarae) MATGAGSGVPSPADRVIVRSPGVIDVHAHAVLPMSLGCAGAAGPEIGYREDGSPFFRVGEYVLNGVRYEGSAFMDPEVRVAAMDAAGIGLQMISPNPITYFTRLDARSATDYARAHNDAIAEAAGRHPGRLVGAAQLPMQDVPAAIAELERSVRELGLVAAYIDTDIGDRTLDAPELDDFYSAAVELDVPVFIHPSPVGQEGPPDDTRLRRFDLDLLLGFSYDETLAVAALVFGGVLERHPALDVCLSHGGGTLAFVAGRFARAVAKPRAWVPEFLVENGIESYLRRLWLDTHVHSAGSLRLLIDTVGTDRLVFGTNFAGWDADGATEVDALGDLRETTTANAAHLLRLGRA , give its reported Fold Activity.
2.4
